System: BT-549 breast
Assay: NCI-60 one-dose screen, 48 h
Conditions: 10 µM unless noted
Description: Growth inhibition of the BT-549 human tumor cell line is measured as a screen for anti-cancer activity. Cells are grown in 96 well plates and exposed to the test compound for 48 hours. Compounds are tested at a single concentration, which is 10^-5 M for most compounds. The reported endpoint is percent growth (GI% or GIPRCNT), where numbers from 0 - 100% represent growth inhibition, and numbers from -100% - 0 represent cell death. For example, a value of 40 represents 60% growth inhibition. […]
This is part of a sample that, as a whole, favours compounds with a hit. Of some 83,000 tested, about 20% had one in any assay. The source made the active and inactive calls. How the source made its calls: active means growth percent below 10; inactive means the rest.
Your reply should match one of these outcome classes. active, inactive

Check the results log: what was the call for c1ccc(-c2nc(N3CCCNCC3)c3nc(-c4ccccc4)oc3n2)cc1 ?
inactive

Check the results log: what was the call for Cc1cccc([N+](=O)[O-])c1I ?
inactive

Check the results log: what was the call for CC(C)=CC/C=C(/C)[C@H]1CC[C@]2(C)[C@@H]1CC[C@@H]1[C@@]3(C)CCCNC(C)(C)[C@@H]3CC[C@]12C ?
active

Check the results log: what was the call for COc1cc(/C=C/C(=O)/C=C/c2ccc(-n3ccnc3)cc2)ccc1O ?
inactive

Check the results log: what was the call for Nc1cc(N)c(N=Nc2ccc(S(=O)(=O)O)cc2)cc1N=Nc1ccc(-c2ccc(N=Nc3ccc(O)c(C(=O)O)c3)cc2)cc1 ?
inactive

Check the results log: what was the call for COc1cc2c(c(Br)c1N)-c1cc(Br)c(N)cc1C2=O ?
inactive

Check the results log: what was the call for CCOc1cc(NC(=O)c2ccccc2)c(OCC)cc1N ?
inactive

Check the results log: what was the call for O=S(=O)(NCCNc1nccc(-c2c(-c3cccc(F)c3)nc3occn23)n1)c1ccc(C(F)(F)F)cc1 ?
inactive

Check the results log: what was the call for CC1(C)[C@@H](NOCCCN)CC[C@]2(C)[C@H]3C(=O)C=C4[C@@H]5C[C@](C)(C(=O)O)CC[C@]5(C)CC[C@@]4(C)[C@]3(C)CC[C@@H]12 ?
active

Check the results log: what was the call for CC1(C)C(=O)/C(=C\c2cccnc2)C[C@]2(C)[C@H]3CC[C@@H]4[C@H]5[C@H](C(=O)/C=C/c6cccnc6)CC[C@]5(C(=O)O)CC[C@@]4(C)[C@]3(C)CC[C@@H]12 ?
active

Check the results log: what was the call for C=C(C)[C@@H]1CC[C@]2(C(=O)NCCCN)CC[C@]3(C)[C@H](CC[C@@H]4[C@@]5(C)CC[C@H](O)C(C)(C)[C@@H]5CC[C@]43C)[C@@H]12 ?
active

Check the results log: what was the call for CC1(C)CC[C@]2(C(=O)O)CC[C@]3(C)C(=CC[C@@H]4[C@@]5(C)C/C(=C/c6cccnc6)[C@H](O)C(C)(C)[C@@H]5CC[C@]43C)[C@@H]2C1 ?
active

Check the results log: what was the call for CC[C@]12C=CCN3CC[C@@]4(c5ccc(OC)cc5N(C)[C@H]4[C@@](O)(C(=O)OC)[C@@H]1OC(=O)CCC(=O)N[C@H](Cc1c[nH]c4ccccc14)C(=O)OC)[C@@H]32 ?
active

Check the results log: what was the call for CC1(C)S[C@@H]2[C@H](NC(=O)[C@H](C(=O)O)c3cccs3)C(=O)N2[C@H]1C(=O)O ?
inactive

Check the results log: what was the call for O=[N+]([O-])c1cccc(N=NNc2cccc([N+](=O)[O-])c2)c1 ?
inactive

Check the results log: what was the call for Cc1ccccc1-n1nnc(C(=O)Nc2nc3ccc(F)cc3s2)c1C ?
inactive

Check the results log: what was the call for Cc1cc[n+](CCCCCCCCCC[n+]2ccc(C)cc2)cc1 ?
inactive
